# Tested On: Tyrosine-protein kinase Blk (Homo sapiens) (UniProt P51451)
# Sequence (P51451 2-505 limits assumed): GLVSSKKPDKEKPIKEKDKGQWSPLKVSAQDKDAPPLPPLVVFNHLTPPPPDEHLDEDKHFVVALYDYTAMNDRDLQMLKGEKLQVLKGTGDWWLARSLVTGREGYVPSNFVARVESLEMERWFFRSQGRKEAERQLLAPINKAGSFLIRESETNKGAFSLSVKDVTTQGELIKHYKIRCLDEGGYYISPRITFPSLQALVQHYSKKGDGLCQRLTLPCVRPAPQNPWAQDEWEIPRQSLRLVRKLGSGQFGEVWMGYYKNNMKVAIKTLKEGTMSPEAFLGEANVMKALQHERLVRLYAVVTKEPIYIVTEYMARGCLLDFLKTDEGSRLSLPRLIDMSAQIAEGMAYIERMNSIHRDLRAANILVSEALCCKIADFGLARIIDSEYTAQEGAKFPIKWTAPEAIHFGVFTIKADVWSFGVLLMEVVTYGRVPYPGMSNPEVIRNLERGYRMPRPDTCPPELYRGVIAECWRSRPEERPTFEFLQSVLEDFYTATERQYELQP
# Condition Parameters: at 0.1 µM
Readout Kind: inhibition
Number first, unit second.

Some molecules with known inhibition results, for comparison:
>  <Structure Smiles String>
CCN1CCC(C(=O)Nc2n[nH]c3nnc(-c4cccc(F)c4F)cc23)CC1

>  <Tested On>
Tyrosine-protein kinase Blk (Homo sapiens) (UniProt P51451)

>  <inhibition>
0.62%

$$$$
>  <Structure Smiles String>
Cc1cc(O)cc(C)c1/C=C/c1cncc(C(=O)OC(C)(C)C)c1

>  <Tested On>
Tyrosine-protein kinase Blk (Homo sapiens) (UniProt P51451);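 also: reported value is the mean percent inhibition of BLK kinase activity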

>  <inhibition>
4.36%

$$$$

Parameters: items (list). Returns: inhibition for each item.
1. O=C(O[C@H]1CN[C@H](C#Cc2cc3ncnc(Nc4ccc5c(ccn5Cc5cc(F)ccc5F)c4)c3s2)C1)N1CCOCC1
2. NS(=O)(=O)c1cccc(N/C=C2\C(=O)Nc3ccccc32)c1
3. COc1cccc(-n2ncc3c(N/N=C/c4ccc(C(=O)NCCN(C)C)cc4)ncnc32)c1
4. O=C(Nc1n[nH]c2nnc(-c3cccnc3)cc12)C1CC1

Data returned:
1: 2.36%; 2: 2.39%; 3: 18.1%; 4: 0.58%

Parameters: items (list). Returns: inhibition for each item.
1. CC(C)c1ccc(-c2cc(-c3c[nH]nc3-c3ccccn3)ccn2)cc1
2. COc1cc(N2CCN(C(C)C)CC2)ccc1Nc1nc(Nc2cccc(F)c2C(=O)O)c2cc[nH]c2n1
3. COc1ccc2ncn(-c3cc(O[C@H](C)c4ccccc4C(F)(F)F)c(C(N)=O)s3)c2c1

Data returned:
1: 1.02%; 2: 2.92%; 3: -0.74%

----------
Record form. Attribute: inhibition. Fill in for each entry.
# Tested On: Macrophage colony-stimulating factor 1 receptor (Homo sapiens) (UniProt P07333);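 also: value reported is the mean inhibition of FMS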
# Sequence (P07333 whole entry): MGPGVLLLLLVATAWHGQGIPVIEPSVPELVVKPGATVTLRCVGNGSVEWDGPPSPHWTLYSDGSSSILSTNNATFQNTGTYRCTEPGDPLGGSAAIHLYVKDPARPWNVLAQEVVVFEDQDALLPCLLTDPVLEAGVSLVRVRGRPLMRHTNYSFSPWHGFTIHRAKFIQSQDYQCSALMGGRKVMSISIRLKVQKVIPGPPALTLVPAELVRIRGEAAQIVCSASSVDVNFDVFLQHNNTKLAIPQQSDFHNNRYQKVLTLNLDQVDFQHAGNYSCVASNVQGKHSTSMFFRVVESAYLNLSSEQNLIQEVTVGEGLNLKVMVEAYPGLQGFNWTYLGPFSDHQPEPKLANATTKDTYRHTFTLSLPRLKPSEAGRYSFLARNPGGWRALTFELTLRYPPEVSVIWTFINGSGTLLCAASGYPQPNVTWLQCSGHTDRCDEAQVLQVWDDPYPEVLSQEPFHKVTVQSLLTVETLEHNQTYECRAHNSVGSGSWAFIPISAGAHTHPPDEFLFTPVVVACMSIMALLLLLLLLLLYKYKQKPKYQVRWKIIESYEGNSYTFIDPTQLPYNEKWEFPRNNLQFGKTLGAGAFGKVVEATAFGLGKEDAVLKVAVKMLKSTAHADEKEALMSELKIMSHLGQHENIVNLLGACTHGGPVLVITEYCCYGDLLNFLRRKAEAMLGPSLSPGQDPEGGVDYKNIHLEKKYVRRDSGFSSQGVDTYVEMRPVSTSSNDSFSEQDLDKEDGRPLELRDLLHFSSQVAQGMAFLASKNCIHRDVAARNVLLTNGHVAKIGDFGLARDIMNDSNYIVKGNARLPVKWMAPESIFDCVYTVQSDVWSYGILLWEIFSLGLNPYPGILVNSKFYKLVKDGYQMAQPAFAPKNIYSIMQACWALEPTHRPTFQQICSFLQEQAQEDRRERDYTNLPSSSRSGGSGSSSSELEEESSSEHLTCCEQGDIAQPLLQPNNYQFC
# Condition Parameters: at 0.1 µM
Answers are plain numbers, in %.

>  <Molecule>
CCS(=O)(=O)c1ccc(OC)c(Nc2ncc(-c3cccc(F)c3)o2)c1

>  <inhibition / %>
33.7

$$$$

Parameters: items (list). Returns: inhibition for each item.
1. CC1=C(C(=O)Nc2ccc3[nH]nc(C)c3c2)C(c2ccc(C(F)(F)F)cc2)CC(=O)N1 (stereo unspecified)
2. CC(C)c1ccc(-c2cc(-c3c[nH]nc3-c3ccccn3)ccn2)cc1
3. NS(=O)(=O)c1cccc(N/C=C2\C(=O)Nc3ccccc32)c1
4. COc1c(C(N)=O)cc(-c2ccc(Cl)cc2)cc1-c1ccc(S(N)(=O)=O)cc1
5. COC(=O)Nc1nc2ccc(Oc3ccc(NC(=O)Nc4cc(C(F)(F)F)ccc4F)cc3)cc2s1
6. Cc1c2ccc(N(C)c3ccnc(Nc4cccc(S(N)(=O)=O)c4)n3)cc2nn1C

Data returned:
1. 1.56
2. 0.03
3. 5.41
4. 5.24
5. 2.52
6. 78.4

Parameters: items (list). Returns: inhibition for each item.
1. COc1ccc(Nc2ncc(-c3ccccc3)o2)cc1OC
2. CCn1c(-c2nonc2N)nc2cncc(C(=O)NCCNC)c21

Data returned:
21.9
-0.11

Parameters: items (list). Returns: inhibition for each item.
1. N#Cc1cccc(Nc2ncc(-c3ccccc3)o2)c1
2. NS(=O)(=O)c1ccc(N/N=C2\C(=O)Nc3cccc(CCc4ccncc4)c32)cc1
3. CN(c1ccc(NC(=O)NCCN2CCOCC2)cc1)c1ccnc(Nc2ccc(CS(C)(=O)=O)cc2)n1
4. FC(F)(F)CNc1nccc(-c2cnn3ncccc23)n1
5. NC(=O)c1ccc2c(-c3ccnc(NCCCO)n3)c(-c3ccc(F)cc3)nn2c1
6. CN1CCC(n2cnc(-c3ccc(F)cc3)c2-c2ccnc(NCCO)n2)CC1
7. CNC(=O)c1sc(-n2cnc3cc(OC)c(OC)cc32)cc1OCc1ccccc1C(F)(F)F
8. CCOc1ccc2c(-c3ccnc(Nc4cc(OC)cc(C(F)(F)F)c4)n3)cnn2n1

Data returned:
[3.05, 39.9, 79.7, -4.71, 5.2, 3.25, -2.22, 2.34]

Parameters: items (list). Returns: inhibition for each item.
1. COc1ccc2ncn(-c3cc(O[C@H](C)c4ccccc4C(F)(F)F)c(C(N)=O)s3)c2c1
2. COC(=O)Nc1nc2cc(Oc3ccc(NC(=O)Nc4ccccc4)cc3)ccc2[nH]1
3. c1ccc(-c2n[nH]cc2-c2ccnc(-c3ccc(OCCn4ccnc4)cc3)c2)nc1
4. COc1cc(N2CCN(C(C)C)CC2)ccc1Nc1nc(Nc2cccc3ncccc23)c2cc[nH]c2n1
5. COc1ccc(-c2nn3ncccc3c2-c2ccnc(Nc3ccc(F)c(F)c3)n2)cc1
6. CS(=O)(=O)CCNCc1ccc(-c2ccc3ncnc(Nc4ccc(OCc5cccc(C(F)(F)F)c5)cc4)c3c2)o1
7. NS(=O)(=O)c1ccc(N/N=C2\C(=O)Nc3ccc(C(=O)NCc4ccncc4)cc32)cc1
8. Fc1cccc(COc2ccc(Nc3ncncc3C#Cc3ccccc3)cc2Cl)c1

Data returned:
1: -0.05; 2: 11.4; 3: 2.61; 4: 1.9; 5: 5.19; 6: 3.92; 7: 3.12; 8: 3.32

Parameters: items (list). Returns: inhibition for each item.
1. CNC(=O)c1cncc(/C=C/c2ccccc2C)c1
2. Cc1nnc(-c2cccc(-c3ccc(C(=O)NCC4CC4)cc3)c2)o1
3. CC1(C)CC(n2cnc(-c3ccc(F)cc3)c2-c2ccnc(N)n2)CC(C)(C)N1
4. COc1cccc(-n2ncc3c(N/N=C/c4ccc(C(=O)NCCN(C)C)cc4)ncnc32)c1
5. COc1cc(N2CCN(C(C)C)CC2)ccc1Nc1nc(Nc2cccc(F)c2C(=O)O)c2cc[nH]c2n1
6. O=C(O[C@H]1CN[C@H](C#Cc2cc3ncnc(Nc4ccc5c(cnn5Cc5ccccc5)c4)c3s2)C1)N1CCOCC1

Data returned:
1: -0.27; 2: 2.5; 3: 1.31; 4: 6.78; 5: 2.82; 6: -6.02
